The values you see were collected from PubChem BioAssay.

# System: Sam68 (KHDRBS1)
# measurementNotes: Sam68 small-molecule binders, primary screen, biochemical, small-molecule microarray, 635 nm fluorescence (AID 1125);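 further: score merges 667 nm channel intensity with signal to noise over triplicate slides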
# conditions: small-molecule microarray binding, higher = more signal
quantity: composite z-score

> print(dat)
                                   compound     testedtarget  reportedmeasurement
1  O=C1[C@H]2[C@H]3[C@H](O)[C@H](O)CC(=NOCc4ccccc4)[C@@H]3CC[C@H]2C(=O)N1c1ccc(F)cc1F  Sam68 (KHDRBS1)               -0.806
2  COCCNC(=O)OCC1CCCC2(CC(OC(=O)NCc3ccc4c(c3)OCO4)CC(CCC(=O)N[C@@H](C)C(=O)OC)O2)O1 (some centres not stated)  Sam68 (KHDRBS1)                  1.3
3  C[C@H]1Cc2c(COc3ccccc3)nc3c(c2CO1)CN(CCOc1ccccc1)CC3  Sam68 (KHDRBS1)                 1.32
4  CCOC(=O)NN=C1C[C@@H](O)[C@@H](O)[C@@H]2[C@@H]3C(=O)N(c4ccc(F)cc4F)C(=O)[C@@H]3CC[C@@H]12  Sam68 (KHDRBS1)                0.591
5  COc1ccc(COC(=O)NN=C2C[C@@H](O)[C@@H](O)[C@@H]3[C@@H]4C(=O)N(C5CCCCC5)C(=O)[C@@H]4CC[C@H]23)cc1  Sam68 (KHDRBS1)               -0.331
6  O=C1C=C[C@@H](O)[C@@H]2[C@@H]3C(=O)N(c4ccc(F)cc4F)C(=O)[C@@H]3CC[C@@H]12  Sam68 (KHDRBS1)                0.157
7  COc1ccc(COC(=O)NN=C2C[C@@H](O)[C@@H](O)[C@@H]3[C@@H]4C(=O)N(c5cccc(Oc6ccccc6)c5)C(=O)[C@@H]4CC[C@@H]23)cc1  Sam68 (KHDRBS1)               -0.456

###

# measurementNotes: basal 3T3-L1 adipocyte mitochondrial potential changes, profiling panel, cell-based, JC-1 fluorescence, 3T3-L1 adipocytes, 24 h, 100 nL compound (AID 1168); further: test concentration not given here
# conditions: JC-1 mitochondrial fluorescence, higher = more signal, called active from +8 up or from −8 down
quantity: z-score

> print(dat)
                                 smilesrepr  reportedmeasurement
1  CCc1cc2c(nc1CC)CCN(CCC(C)=NO[C@H](C)c1cn([C@H](CO)Cc3ccccc3)nn1)C2                -1.37
2  CC(CCN1CCc2nc(-c3ccccc3)c(-c3ccccc3)cc2C1)=NOC[C@@H](O)[C@H]1O[C@@H]2OC(C)(C)O[C@@H]2[C@H]1O                -1.54
3  C#CCCCON=C1C[C@@H](O)[C@@H](O)[C@@H]2[C@@H]3C(=O)N(c4ccc(F)cc4F)C(=O)[C@@H]3CC[C@@H]12                -1.15
4  CO[C@H]1COC(=O)[C@H](C)NC(=O)CC=C[C@@H](C)[C@H](OC)COC(=O)[C@@H](OCc2ccccc2)C=C[C@@H]1C                -0.29

###

# measurementNotes: adipocyte viability effects, profiling panel, cell-based, 3T3-L1 adipocytes, calcein-AM fluorescence, 48 h, basal (AID 1163); further: test concentration not given here
# conditions: 3T3-L1 adipocytes viability, higher = more signal
z-score values by entry

compound	z-score
CC(CCN1CCCCc2nc(C)c(C)cc21)=NOC[C@@H](C)[C@H](OCc1ccccc1)C(C)C	0.588
C#CCCCON=C1C[C@@H](O)[C@@H](O)[C@@H]2[C@@H]3C(=O)N(C(C)(C)C)C(=O)[C@@H]3CC[C@H]12	-0.304
CC(C)C[C@H](NC(=O)CCC1CC(OC(=O)NCc2cccc3ccccc23)CC2(CCCC(COC(=O)NCc3ccccc3)O2)O1)C(=O)NCC(c1ccccc1)c1ccccc1 (some centres undefined)	0.111
CCN1C(=O)[C@H]2[C@H]3[C@H](O)[C@H](O)CC(=NO[C@@H](C)c4cn([C@H](CO)Cc5ccccc5)nn4)[C@@H]3CC[C@H]2C1=O	0.0248
CCC(=O)[C@@]1(O)C(=O)N2C(=C3C(=O)OCC[C@@H]31)N(Cc1ccccc1)C(C)=C(C(=O)OC)[C@H]2c1ccccc1	-1.09
CCN1C(=O)[C@H]2[C@H]3[C@H](O)[C@H](O)CC(=NNC(=O)OCc4ccc(OC)cc4)[C@@H]3CC[C@H]2C1=O	-0.0397
C#CCCCON=C1C[C@@H](O)[C@@H](O)[C@@H]2[C@@H]3C(=O)N(Cc4ccccc4)C(=O)[C@@H]3CC[C@@H]12	-0.198
CON=C[C@@H](NS(=O)(=O)c1ccc(C)cc1)[C@H](C)C=CCC(=O)OC	-0.951
COc1ccc(O[C@H]2C=C[C@@H](c3ccccc3)O[C@@H]2CON=C(C)CCN2CCc3nc(-c4ccccc4)c(-c4ccccc4)cc3C2)cc1	0.133
COC(=O)[C@@H]1CC[C@H](C)[C@@H](c2ccc(C)cc2)N1C(=O)c1ccc(C=NOC[C@@H](C)[C@H](OCc2ccccc2)C(C)C)cc1	0.903
O=C1C[C@@H](O)[C@@H](O)[C@@H]2[C@@H]3C(=O)N(Cc4ccccc4)C(=O)[C@@H]3CC[C@@H]12	-0.118
O=C1C2=CC[C@H]3C(=O)N(c4cccc(Oc5ccccc5)c4)C(=O)[C@H]3[C@H]2[C@H](O)[C@@H]2O[C@H]12	-0.0208
CC(=O)OC[C@H]1O[C@H](CCON=C2[C@H]3CCn4c(=O)n(-c5ccccc5)c(=O)n4[C@H]3[C@H](O)[C@@H]3O[C@H]23)C=C[C@@H]1OC(C)=O	-1.08
COc1ccc(O[C@@H]2[C@H](O)CO[C@H]2C=Cc2ccccc2)cc1	0.759

###

# measurementNotes: PSAC antagonists in infected red cells, primary screen, cell-based, P. falciparum Indochina, OD700, 18 h (AID 1157)
# conditions: P. falciparum Indochina infected erythrocytes, osmotic lysis OD700, 18 h; higher = more signal, called active from +8 up or from −8 down
Param threshold (0.002) applies to z-score; output Fulfilled when value >= threshold, Not fulfilled when value < threshold.

compound	className
O=C1[C@H]2[C@H]3[C@H](O)[C@H](O)CC(=NOCc4ccccc4)[C@@H]3CC[C@H]2C(=O)N1C[C@@H]1CCCO1	Fulfilled
CO[C@H]1COC(=O)[C@@H]2CCCN2C(=O)CC=C[C@@H](C)[C@H](OC)COC(=O)[C@@H](OCc2ccccc2)C=C[C@@H]1C	Not fulfilled
CCOC(=O)[C@H](Cc1ccccc1)NC(=O)CCC1CC(OC(=O)NCc2cccc3ccccc23)CC2(CCCC(COC(=O)NCCC(C)C)O2)O1 (stereo not given in full)	Not fulfilled
CO[C@H]1COC(=O)CCC[C@@H](C)[C@H](OC)COC(=O)[C@@H](C)NC(=O)CC=C[C@@H]1C	Not fulfilled
CC(CCN1CCCCc2nc(C)c(C)cc21)=NO[C@@H](C)c1cn([C@H](CO)Cc2ccccc2)nn1	Fulfilled
CCOC(=O)[C@H](CC(C)C)NC(=O)CCC1CC(OC(=O)NCc2cccc3ccccc23)CC2(CCCC(COC(=O)NCCc3ccc(Cl)cc3)O2)O1 (stereo not given in full)	Not fulfilled
CCOC(=O)NN=C1C[C@@H](O)[C@@H](O)[C@@H]2[C@@H]3C(=O)N([C@@H](C)c4ccccc4)C(=O)[C@@H]3CC[C@H]12	Fulfilled
CO[C@H]1COC(=O)CCC[C@@H](C)[C@H](OC)COC(=O)[C@@H]2CCCN2C(=O)CC=C[C@@H]1C	Not fulfilled
C[C@@H](c1ccccc1)N1C(=O)[C@H]2[C@H]3[C@H](O)[C@H](O)CC(=NO[C@@H]4O[C@H](CO)[C@@H](O)[C@H](O)[C@H]4O)[C@@H]3CC[C@H]2C1=O	Not fulfilled
CCCNC(=O)OC[C@H]1O[C@H](CCON=C(C)CCC(=O)OC[C@H]2O[C@H](c3ccccc3)C=C[C@@H]2Oc2ccc(OC)cc2)C=C[C@@H]1Oc1ccc(OC)cc1	Fulfilled
CC(C)(C)N1C(=O)[C@H]2[C@H]3[C@H](O)[C@H](O)CC(=O)[C@@H]3CC[C@H]2C1=O	Not fulfilled
CO[C@@H]1COC(=O)CC=C[C@@H](C)[C@H](OC)COC(=O)[C@@H](C)COC(=O)CC=C[C@H]1C	Fulfilled
CCCCC#C[C@@H]1C=C[C@H](Oc2cc(OC)c(OC)c(OC)c2)[C@@H](COC(=O)OCC)O1	Not fulfilled
CC(CCN1CCCCc2nc(C)c(C)cc21)=NO[C@H](C)c1cn([C@H](CO)Cc2ccccc2)nn1	Fulfilled
CON=C[C@@H](NS(=O)(=O)c1ccc(C)cc1)[C@H](C)C=CCC(=O)OC	Fulfilled
COC(=O)[C@@H]1CC[C@@H](C)[C@H](c2ccc(Br)cc2)N1	Not fulfilled
COC(=O)CC=C[C@H](C)[C@@H](OCc1cccc(Br)c1)[C@@H](C)[C@H](OC)C1CCCCC1	Fulfilled
CC=CC1=C(CO)C(=O)[C@@H]2O[C@@H]2C1=O	Not fulfilled
CO[C@H]1COC(=O)CC=C[C@H](C)[C@@H](OC)COC(=O)[C@@H](C)NC(=O)CC=C[C@@H]1C	Not fulfilled
CCc1cc2c(nc1CC)CCN(CCC(C)=NO[C@H](C)c1cn([C@@H]3COC[C@H]3O)nn1)C2	Fulfilled
CO[C@@H]1C=CCC(=O)N2CCC[C@H]2C(=O)OC[C@@H](C)C(=O)OC[C@H]1C	Fulfilled
C=CC[C@@H]1C=C[C@H](ON=C[C@@H](C)[C@H](OCc2ccccc2)C(C)C)[C@@H](CO)O1	Fulfilled
COC(=O)[C@H](C)NC(=O)CCC1CC(OC(=O)NCc2ccc3c(c2)OCO3)CC2(CCCC(COC(=O)NCC(c3ccccc3)c3ccccc3)O2)O1 (stereo not given in full)	Not fulfilled
CCOC(=O)NN=C1C[C@@H](O)[C@@H](O)[C@@H]2[C@@H]3C(=O)N(Cc4ccccc4)C(=O)[C@@H]3CC[C@H]12	Not fulfilled
CCOC(=O)NN=C1C[C@@H](O)[C@@H](O)[C@@H]2[C@@H]3C(=O)N(c4cccc(Oc5ccccc5)c4)C(=O)[C@@H]3CC[C@H]12	Not fulfilled
C=CC[C@@H]1C=C[C@H](ON=C(C)CCC(=O)OC[C@H]2O[C@H](c3ccccc3)C=C[C@@H]2Oc2ccc(OC)cc2)[C@@H](CO)O1	Fulfilled
CC(C)CON=C1C[C@@H](O)[C@@H](O)[C@@H]2[C@@H]3C(=O)N(C4CCCCC4)C(=O)[C@@H]3CC[C@@H]12	Not fulfilled
COC(=O)[C@@H]1CC[C@H](C)[C@@H](c2ccc(C)cc2)N1C(=O)c1ccc(C=NOC[C@@H](C)[C@H](OCc2ccccc2)C(C)C)cc1	Not fulfilled
CCOC(=O)CCN1C(=O)[C@H]2[C@H]3[C@H](O)[C@H](O)CC(=NOCc4ccccc4)[C@H]3CC[C@H]2C1=O	Fulfilled
O=C1C[C@@H](O)[C@@H](O)[C@@H]2[C@@H]3C(=O)N(C[C@@H]4CCCO4)C(=O)[C@@H]3CC[C@@H]12	Not fulfilled
